test system: U2OS; test: Incucyte cell viability with U2OS; assay type: toxicity, cell-based; conditions: human, 24 h, 10 µM, compound concentration 10 uM, replicate number 2, timepoint 24 hours; further: unitless GR value; below 1 slowed growth and below 0 cell loss
PROPERTY_MEASURED: Growth Rate
# answer = number (no unit)

[in] Name the recorded Growth Rate for Cc1sc2c(c1C)C(c1ccc(Cl)cc1)=N[C@@H](CC(=O)NCCCCCCCCNC(=O)COc1cccc3c1C(=O)N(C1CCC(=O)NC1=O)C3=O)c1nnc(C)n1-2 (stereo partly drawn) .
[out] 0.7

[in] Name the recorded Growth Rate for `COc1ccc2nc3ccc(OC)cc3c(SCCCN)c2c1.Cl` .
[out] 0.21

[in] Name the recorded Growth Rate for CNC(=O)c1nn(C)c2c1C(C)(C)Cc1cnc(Nc3ccc(N4CCN(C)CC4)cc3)nc1-2 [MILCICLIB] .
[out] 0.25

[in] Name the recorded Growth Rate for Cc1c(C(=O)Nc2ccc(N3C[C@@H](C)O[C@@H](C)C3)nc2)cccc1-c1ccc(OC(F)(F)F)cc1 [SONIDEGIB] .
[out] 0.97

[in] Name the recorded Growth Rate for `N#Cc1c(Oc2cccc(OS(=O)(=O)CCCC(F)(F)F)c2)cccc1C(F)(F)F` .
[out] 0.96

[in] Name the recorded Growth Rate for `CCOC(=O)Nc1cc(-c2ccc(C)c(NS(C)(=O)=O)c2)nn2c(C)nnc12` .
[out] 0.84

[in] Name the recorded Growth Rate for CCc1ccccc1C(=O)Nc1n[nH]c2c(C)c(F)c(C3C(C#N)=C(C)N(C)C(C)=C3C#N)cc12 [BAY-3827] .
[out] 0.87

[in] Name the recorded Growth Rate for `C[C@H](NC(=O)CNC(=O)c1cccc(Cl)c1)c1ccccc1` .
[out] 0.98

* * *

system: U2OS; test: Incucyte cell viability with U2OS; format: toxicity, cell-based; conditions: human, 12 h, 10 µM, compound concentration 10 uM, replicate number 2, timepoint 12 hours; further: unitless GR value; below 1 slowed growth and below 0 cell loss
PROPERTY_MEASURED: Growth Rate
# answer = number (no unit)

[in] Which Growth Rate is reported with U2OS for this entry: `Cc1cc(O)c(-c2ccc([C@@H](C)CN(C)C)cc2)c2c1[nH]c(=O)c1sccc12` ?
[out] 0.31

[in] Which Growth Rate is reported with U2OS for this entry: `CSCC[C@H](NC=O)C(=O)N[C@@H](CC(C)C)C(=O)N[C@@H](Cc1ccccc1)C(=O)O` ?
[out] 0.83

[in] Which Growth Rate is reported with U2OS for this entry: `CC1=C(C)C(=O)C(C(C)(C)CC(=O)N(CCCCSC[C@H]2O[C@@H](n3cnc4c(N)ncnc43)[C@@H]3OC(C)(C)O[C@@H]32)Cc2cccc(-c3ccc(Cl)cc3)c2)=C(C)C1=O` ?
[out] 0.93

[in] Which Growth Rate is reported with U2OS for this entry: `N[C@](CC1c2ccccc2Oc2ccccc21)(C(=O)O)[C@H]1C[C@@H]1C(=O)O` ?
[out] 0.92

[in] Which Growth Rate is reported with U2OS for this entry: `CO[C@H]1CNC[C@@H](OCC2CCC(F)(F)CC2)[C@@H]1Nc1ncc(-c2cncc(C)c2)c2cc(C)c(=O)[nH]c12` ?
[out] 0.98

[in] Which Growth Rate is reported with U2OS for this entry: OCc1cc(C(O)CNCCCCCCOCCCCc2ccccc2)ccc1O (stereo not drawn) ?
[out] 0.98

[in] Which Growth Rate is reported with U2OS for this entry: CCCCCCCC/C=C\CCCCCCCC(N)=O [OLEAMIDE] ?
[out] 0.79

[in] Which Growth Rate is reported with U2OS for this entry: `CC(=O)NCCc1c(Cc2ccccc2)[nH]c2ccccc12` ?
[out] 0.87

* * *

system: Fibroblast; assay: Incucyte cell viability with human fibroblast; format: toxicity, cell-based; details: 6 h, 10 µM, compound concentration 10 uM, replicate number 1, timepoint 6 hours; further: unitless GR value; below 1 slowed growth and below 0 cell loss
Ranges used to classify Growth Rate: class A = under -0.3, class B = from -0.3 up to 0.3, class C = 0.3 and over

[in] Which class does `CN1CCc2cc(Cl)c(O)cc2[C@@H](c2ccccc2)C1.Cl` fall in?
[out] class B

[in] Which class does `CCCn1c(=O)c2[nH]c(C3CCCC3)nc2n(CCC)c1=O` fall in?
[out] class A

[in] Which class does `Cc1cccc(S(=O)(=O)N(C)[C@H](C)CCN2CCC(C)CC2)c1.Cl` fall in?
[out] class C

[in] Which class does `CCOc1c2c(c(OCC)c3ncccc13)CN(c1ccc(CS(=O)(=O)NC(=O)Cc3ccccc3OC)cc1C)C2=O` fall in?
[out] class C

[in] Which class does `Cc1cc(CN)cc(C)c1-c1ncn(C)c1-c1cncn1C` fall in?
[out] class C

[in] Which class does Cc1sc2c(c1C)C(c1ccc(Cl)cc1)=N[C@@H](CC(=O)NCCCCCCCCNC(=O)COc1cccc3c1C(=O)N(C1CCC(=O)NC1=O)C3=O)c1nnc(C)n1-2 (stereo not given in full) fall in?
[out] class A

[in] Which class does `O=C(c1cc(C2CC2)on1)N(C1CCCCC1)C1CCCCC1` fall in?
[out] class A

[in] Which class does `CCc1cc2cc(NS(=O)(=O)c3ccc(C#N)cc3)ccc2n(CC)c1=O` fall in?
[out] class C

[in] Which class does `COC(c1ccccc1)(c1ccccc1)[C@H](Oc1nc(C)cc(C)n1)C(=O)O` fall in?
[out] class C

[in] Which class does `CN[C@@H](C)C(=O)N[C@H](C(=O)N1CCC[C@H]1C(=O)Nc1snnc1-c1ccccc1)C1CCCCC1` fall in?
[out] class A

[in] Which class does `CC(=O)Nc1cccc2c1c(Sc1ccc(Cl)cc1)c(C)n2CC(=O)O` fall in?
[out] class B

[in] Which class does `CSCC[C@H](NC=O)C(=O)N[C@@H](CC(C)C)C(=O)N[C@@H](Cc1ccccc1)C(=O)O` fall in?
[out] class C

[in] Which class does `N#Cc1c(Oc2cccc(OS(=O)(=O)CCCC(F)(F)F)c2)cccc1C(F)(F)F` fall in?
[out] class A

[in] Which class does `CC(C)(C)c1ccc(CSc2cnn(C(C)(C)C)c(=O)c2Cl)cc1` fall in?
[out] class A

[in] Which class does `N=C(N)NCCC[C@H](NC(=O)COCC(c1ccccc1)c1ccccc1)C(=O)O.O=C(O)C(F)(F)F` fall in?
[out] class C

[in] Which class does `CN(c1ncccc1CNc1ccnc(-c2nc3c(F)c(Cl)ccc3[nH]2)n1)S(C)(=O)=O` fall in?
[out] class A

[in] Which class does `S=C(NCCCc1c[nH]cn1)NCCCN(Cc1ccc(Cl)c(Cl)c1)c1ccc(Br)cn1` fall in?
[out] class B

[in] Which class does `N[C@@]1(C(=O)O)CC[C@H]2[C@H](C(=O)O)[C@H]21` fall in?
[out] class C

[in] Which class does `O=C(Nc1cc(C(F)(F)F)ccc1N1CCN(Cc2ccccn2)CC1)c1ccc(-c2ccncc2)o1` fall in?
[out] class B

[in] Which class does `CCCCC1=NC2(CCCC2)C(=O)N1Cc1ccc(-c2ccccc2-c2nnn[nH]2)cc1` fall in?
[out] class B

[in] Which class does `COC(=O)Nc1nc2ccc(C(=O)c3cccs3)cc2[nH]1` fall in?
[out] class A

[in] Which class does `CNC(=O)[C@H]1O[C@@H](n2cnc3c(NCc4cccc(I)c4)ncnc32)[C@H](O)[C@@H]1O` fall in?
[out] class B

[in] Which class does `Cc1nc2ccc(Oc3ccc(F)cc3)cc2c(=O)n1C[C@H]1CCCN(C(C)C)C1.Cl` fall in?
[out] class B

[in] Which class does `CN1CCN(c2ccc(Nc3c4ccccc4nc4ccccc34)cc2)CC1.Cl.Cl.O` fall in?
[out] class A

[in] Which class does `O=C1NCc2ccc3c(-c4cccc(Cl)c4)c[nH]c3c21` fall in?
[out] class A

[in] Which class does `CC[C@H](NC(=O)c1c(C)c(-c2ccccc2)nc2ccccc12)c1ccccc1` fall in?
[out] class C

[in] Which class does C[N+]1(C)[C@@H]2C[C@@H](OC(=O)C(O)(c3cccs3)c3cccs3)C[C@H]1[C@@H]1O[C@@H]12.O.[Br-] [TIOTROPIUM BROMIDE] fall in?
[out] class A

[in] Which class does `CC(=O)c1ccc2c(c1)[C@@H]1C=CC[C@@H]1[C@H](c1cc3c(cc1Br)OCO3)N2` fall in?
[out] class A

[in] Which class does `CC(C)C[C@H](CO)Nc1nc(S[C@@H](C)c2ccccc2)nc2nc(N)sc12` fall in?
[out] class C

[in] Which class does COc1ccc2c(c1)C(C(=O)N(Cc1ccc(N(C)C)cc1)c1ccc(C(C)C)cc1)CCC2.Cl (stereo not given) fall in?
[out] class C

[in] Which class does `CN[C@@H](C)C(=O)N[C@H]1CCCC[C@H]2CC[C@@H](C(=O)N[C@@H](c3ccccc3)c3cn(CCCCc4ccc(CCCCn5cc([C@@H](NC(=O)[C@@H]6CC[C@@H]7CCCC[C@H](NC(=O)[C@H](C)NC)C(=O)N76)c6ccccc6)nn5)cc4)nn3)N2C1=O` fall in?
[out] class B

[in] Which class does `COC1(C[S@@+]([O-])c2ccccc2)CCN(CCc2c[nH]c3ccc(F)cc23)CC1` fall in?
[out] class C

[in] Which class does `OCCN1CCN(CCCN2c3ccccc3Sc3ccc(Cl)cc32)CC1` fall in?
[out] class A

[in] Which class does `COc1ccc2nc3ccc(OC)cc3c(SCCCN)c2c1.Cl` fall in?
[out] class C
